Where do the numbers come from? From the supplement of paper PMC12645437.

Target: T1, CRBN, Q96SW2;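 note: pooled lentiviral library of zinc finger degron-EGFP fusions in mCherry-positive Jurkat cells, FACS-sorted after compound exposure, with degron abundance counted by next-generation sequencing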
T1 chain: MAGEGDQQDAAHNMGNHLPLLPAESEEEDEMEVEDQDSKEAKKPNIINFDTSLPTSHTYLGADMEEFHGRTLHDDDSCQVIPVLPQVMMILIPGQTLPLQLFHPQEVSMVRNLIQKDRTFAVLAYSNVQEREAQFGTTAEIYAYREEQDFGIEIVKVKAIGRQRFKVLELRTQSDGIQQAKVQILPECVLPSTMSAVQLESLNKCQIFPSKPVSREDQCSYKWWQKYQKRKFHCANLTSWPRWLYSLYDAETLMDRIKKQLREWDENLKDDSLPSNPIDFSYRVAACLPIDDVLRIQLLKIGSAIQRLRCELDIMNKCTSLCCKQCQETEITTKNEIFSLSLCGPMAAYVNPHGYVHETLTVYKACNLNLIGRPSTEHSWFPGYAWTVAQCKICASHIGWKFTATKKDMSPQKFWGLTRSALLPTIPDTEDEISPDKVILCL
Experiment: log2 fold change of degron read counts, EGFP-low vs EGFP+ sorted cells (limma voom), compound-induced degradation; higher = more compound-induced degradation of the degron-EGFP fusion; degrons are variants of IKZF1/3 zinc finger 2; compound dose not given here
Conditions: Jurkat; 18 h; compound: compound 22 (5-morpholino-thalidomide)
In all, about 8,300 sequences were measured (“log2 fold change of degron read counts, EGFP-low vs EGFP+ sorted cells (limma voom), compound-induced degradation”: median about -1.1, highest 2% from about 3.2 on). The sample as a whole holds a higher share of the highest values than the screen did.
recorded metric: log2 fold change of degron read counts

Answered examples (3):
• FSCPICGANFTQKGNLLRHIKL [46F_47S_49P_50I_52G_53A_54N_55F_67L_, Q9UKT9] = 1.78
• FYCDVCGAQFTQKGNLLRHIKL [46F_47Y_49D_50V_52G_53A_54Q_55F_67L_, Q9UKT9] = 3.24
• FVCPICGANFTQKGNLLRHIKL [46F_47V_49P_50I_52G_53A_54N_55F_67L_, Q9UKT9] = 2.63

Proceed to the following item.
query: Query: log2 fold change of degron read counts; subject: LCCNQCGFFCTQKGNLLRHIKL [46L_47C_49N_50Q_52G_53F_54F_55C_67L_, Q9UKT9]
result: -1.17
